Numbers sourced from PubChem BioAssay (EPA / NIEHS).

Read-out: Tumor necrosis factor (Homo sapiens) (UniProt P01375)
Sequence (P01375 whole entry, looked up): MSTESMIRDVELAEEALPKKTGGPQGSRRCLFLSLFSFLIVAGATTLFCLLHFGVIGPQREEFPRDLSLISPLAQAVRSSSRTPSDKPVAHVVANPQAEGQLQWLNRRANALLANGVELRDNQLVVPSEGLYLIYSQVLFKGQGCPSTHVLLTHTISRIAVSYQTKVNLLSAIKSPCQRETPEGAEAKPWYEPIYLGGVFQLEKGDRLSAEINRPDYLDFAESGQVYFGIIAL
Test: BSK_BT_xTNFa: BioMAP Diversity Plus: BT Assay for Tumor necrosis factor alpha (TNF-alpha) Biomarker Activity (AID 2284230)
Conditions: primary human B cells with PBMC
Calls of active or inactive are those of the source. Rule for the calls: active = hit-call score of the fitted dose curve at least 0.9, where 1 is the maximum; inactive = score below 0.9.
Classes used: YES for active, NO for inactive

- CC(C)=CC1C(C(=O)OCc2cccc(Oc3ccccc3)c2)C1(C)C (stereo not given): YES
- O=C(O)COc1cc(Cl)c(Cl)cc1Cl: NO
- CCOC(=O)CCN(SN(C)C(=O)Oc1cccc2c1OC(C)(C)C2)C(C)C: YES
- Cc1ccccc1OP(=O)(Oc1ccccc1C)Oc1ccccc1C: YES
- CC(C=O)Cc1ccc2c(c1)OCO2 (stereo not given): NO
- CCOP(=O)(OCC)SCCSCC: NO
- Cc1cc(C(C)(C)c2ccc(O)c(C)c2)ccc1O: NO
- CCC(C)(C#N)N=NC(C)(C#N)CC (stereo not given): NO
- CCOC(=O)CC(=O)CCl: YES
- Oc1cccc(-c2ccccc2)c1: NO
- c1ccc2sc(SNC3CCCCC3)nc2c1: YES
- O=S(=O)(c1ccc(Cl)cc1)c1cc(Cl)c(Cl)cc1Cl: NO
- CCOC(=O)C(SP(=S)(OC)OC)c1ccccc1 (stereo not given): NO
- CCCCN(CCCC)C(=S)[S-].CCCCN(CCCC)C(=S)[S-].[Ni+2]: NO
- Cc1ccc(OP(=O)(Oc2ccc(C)cc2C)Oc2ccc(C)cc2C)c(C)c1: YES
- O=C1C=CC(=O)c2ccccc21: YES
- CCOP(=S)(OCC)OP(=S)(OCC)OCC: NO
- O=[N+]([O-])c1ccc(Nc2ccccc2)cc1: NO
- CC(C)(C)c1cc([N+](=O)[O-])cc(C(C)(C)C)c1O: YES
- CCOP(=O)(OCC)OC(=CCl)c1ccc(Cl)cc1Cl: NO

###

Assay: ATG_PXRE_CIS: Attagene CIS-FACTORIAL HepG2 Assay for human Pregnane X Receptor Element (PXRE) (AID 2282957)
Conditions: HepG2 Attagene CIS-FACTORIAL PXRE reporter, mRNA; actives raise or lower the signal
Activity calls are given as the source filed them. The calls were made as follows: active = hit-call score of the fitted dose curve at least 0.9, where 1 is the maximum; inactive = score below 0.9.
Classes used: True = active, False = inactive

* Cc1ccccc1OP(=O)(Oc1ccccc1)Oc1ccccc1 | True
* Cc1cccc(N=Nc2ccc(N(C)C)cc2)c1 | True
* O=C1C=CC(=O)c2ccccc21 | False
* CCOP(=O)(OCC)SCCSCC | True
* CCC(C)(C#N)N=NC(C)(C#N)CC (stereo unspecified) | True
* O=C(N[C@H]1CN2CCC1CC2)c1ccc2c(c1)OCCO2 | False

###

Experiment: ATG_PPRE_CIS: Attagene CIS-FACTORIAL HepG2 Assay for human Peroxisome Proliferator-activated Response Element (PPRE) (AID 2282958)
Conditions: HepG2 PPRE cis-element reporter, Attagene transcription factor profiling; actives raise or lower the signal
The source made the active and inactive calls. The calls were made as follows: active = hit-call score of the fitted dose curve at least 0.9, where 1 is the maximum; inactive = score below 0.9.
Classes used: yes (active), no (inactive)

* OC[C@@H](O)[C@H]1O[C@@H]2O[C@H](C(Cl)(Cl)Cl)O[C@@H]2[C@H]1O | no
* OC(c1ccc(Cl)cc1)(c1ccc(Cl)cc1)c1cccnc1 | no
* O=C(O)COc1ccc(Cl)cc1 | no
* Clc1cnc(Oc2ccc(Oc3ncc(Cl)cc3Cl)cc2)c(Cl)c1 | no
* O=C(NC(=O)c1c(F)cccc1F)Nc1cc(Cl)c(Oc2ncc(C(F)(F)F)cc2Cl)c(Cl)c1 | no
* CCCCN(CCCCO)N=O | no
* c1csc(-c2ccc(-c3cccs3)s2)c1 | yes
* CCCCS(=O)(=O)Cl | no
* CN(N=O)c1ccc([N+](=O)[O-])cc1 | no

###

Read-out: Human Leukocyte Antigen - DR isotype (HLADR), HLA-DRA (gene 3122)
Test: BSK_3C_HLADR: BioMAP Diversity Plus: 3C Assay for Human Leukocyte Antigen - DR isotype (HLADR) Biomarker Activity (AID 2283019)
Details: primary human endothelial cells (HUVEC); actives raise or lower the signal
Activity calls are given as the source filed them. The calls were made as follows: active = hit-call score of the fitted dose curve at least 0.9, where 1 is the maximum; inactive = score below 0.9.
Classes used: active, inactive

* CCCCN(CCCC)C(=S)[S-].CCCCN(CCCC)C(=S)[S-].[Ni+2] | inactive
* Oc1c(Cl)cc(Cl)cc1Cl | inactive
* CC(C=O)Cc1ccc2c(c1)OCO2 (configuration not stated) | inactive
* Cc1ccccc1OP(=O)(Oc1ccccc1)Oc1ccccc1 | active
* CCCCOC(=O)COC(=O)c1ccccc1C(=O)OCCCC | inactive
* Oc1cc(Cl)c(Cl)cc1Cl | active
* Cc1cc(C)cc(C)c1 | inactive

###

Target: Cellular tumor antigen p53 (Homo sapiens)
Experiment: TOX21_p53_BLA_p4_ratio: Tox21 HCT-116 p53 Agonism Beta-lactamase Assay, Ratio, Phase 4 (AID 2283601)
Inconclusive results are not listed. Activity calls are given as the source filed them. Rule for the calls: active = hit-call score of the fitted dose curve at least 0.9, where 1 is the maximum; inconclusive = response in the unintended direction; inactive = score below 0.9.
Classes used: 1.0 for active, 0.0 for inactive

* CC(C)[C@H](C(=O)OC(C#N)c1cccc(Oc2ccccc2)c1)c1ccc(OC(F)F)cc1 (stereo partly drawn) | 0.0
* CC(=Cc1ccccc1)[N+](=O)[O-] | 0.0
* Cc1cccc(N=Nc2ccc(N(C)C)cc2)c1 | 0.0
* O=C(Cl)OCCOCCOC(=O)Cl | 0.0
* CC(C)C(C)(N)C#N (stereo not drawn) | 0.0
* O=NN1CCOCC1 | 0.0
* Nc1nc(N)nc(Cl)n1 | 0.0
* O=C(CCl)NCO | 0.0
* CCCCCCCCCCCCCl | 0.0
* O=CCCl | 0.0
* CC1(C)[C@H](/C=C2\CCSC2=O)[C@@H]1C(=O)OCc1coc(Cc2ccccc2)c1 | 1.0
* CCOP(=S)(OCC)Oc1ccc(Cl)cc1Cl | 0.0
* Cc1cc(-c2cc(C)c(N)c(C)c2)cc(C)c1N | 0.0
* CCCCOC(C)=O | 0.0
* [F][Sn]([c]1ccccc1)([c]1ccccc1)[c]1ccccc1 | 1.0
* Nc1ccc(-c2ccccc2)cc1 | 0.0
* CCOc1cc(C=O)ccc1O | 0.0
* CC(C)(c1ccccc1)c1cc(-n2nc3ccccc3n2)c(O)c(C(C)(C)c2ccccc2)c1 | 0.0

###

Test: ATG_EGR_CIS: Attagene CIS-FACTORIAL HepG2 Assay for human Early Growth Response 1 (EGR1) (AID 2282938)
Conditions: HepG2 Attagene CIS-FACTORIAL EGR reporter mRNA; actives raise or lower the signal
Active and inactive are the calls of the source. Rule for the calls: active = hit-call score of the fitted dose curve at least 0.9, where 1 is the maximum; inactive = score below 0.9.
Classes used: 1.0 = active, 0.0 = inactive

• CC(O)(CS(=O)(=O)c1ccc(F)cc1)C(=O)Nc1ccc(C#N)c(C(F)(F)F)c1 (stereo not given) = 0.0
• N#Cc1ccccc1Cl = 0.0
• Nc1ccc(Br)cc1 = 0.0
• CC(C)(C)c1cc([N+](=O)[O-])cc(C(C)(C)C)c1O = 0.0
• C=CCOC(N)=O = 0.0
• CCCCCCCCBr = 0.0
• O=S(=O)(c1ccc(Cl)cc1)c1cc(Cl)c(Cl)cc1Cl = 0.0
• OC(Cc1ccccc1Cl)(Cn1cncn1)C1(Cl)CC1 (stereo not given) = 1.0
• C=CCN=C=S = 0.0
• C#CCO = 0.0
• O=c1[nH]c(=O)n(Cl)c(=O)n1Cl = 0.0
• CC1(C)[C@H](C(=O)O[C@H](C#N)c2cccc(Oc3ccccc3)c2)[C@@H]1/C=C(\Cl)C(F)(F)F = 0.0
• O=C(CBr)c1ccc(O)cc1 = 0.0
• COc1ccccc1N = 0.0
• Cc1cc(Cl)ccc1OC(C)C(=O)O (stereo not given) = 0.0
• COc1nn(C(=O)NS(=O)(=O)c2ccccc2OC(F)(F)F)c(=O)n1C = 0.0
• Oc1c(Br)cc(Br)cc1Br = 1.0
• Cc1cc(Cl)ccc1N = 0.0
• Clc1cccc(Cl)c1 = 0.0
• CN(C)CCN(C)C = 0.0
• Cc1ccc(CCl)cc1 = 0.0
• CCCCOC(C)=O = 0.0
• O=C=Nc1ccc(Cl)cc1 = 0.0
• OCCN(CCO)CCO = 0.0
• CC(C)(C)c1ccccc1O = 1.0
• CC(=O)C(F)(F)C(F)(F)F = 0.0
• CCCCCCCCCCCCN(C)C = 1.0
• CCC[N+](CCC)(CCC)CCC = 0.0
• CCCCS(=O)(=O)Cl = 0.0
• N#CCCC(Br)(C#N)CBr (stereo not given) = 1.0
• Cc1cccc(N=Nc2ccc(N(C)C)cc2)c1 = 0.0
• COP(=S)(OC)Oc1cc(Cl)c(I)cc1Cl = 1.0
• Cc1ccccc1OP(=O)(Oc1ccccc1)Oc1ccccc1 = 0.0
• C1CN2CCN1CC2 = 0.0
• Brc1c(Br)c(Br)c(Oc2c(Br)c(Br)c(Br)c(Br)c2Br)c(Br)c1Br = 0.0
